Source: PubChem BioAssay

protocol summary: RPL19A-GFP modulators, yeast TOR pathway, confirmation, cell-based, S. cerevisiae, flow cytometry, cherry picks, mother/daughter gates (AID 2270)
applied conditions: S. cerevisiae RPL19A-GFP strain, 3 h, measured here: daughter cell gate, at 10 µM, stronger effect = lower value, 100 = same GFP as DMSO wells
Reported GFP response vs DMSO values follow for various compounds

compound	GFP response vs DMSO [%]
CCc1ccc(OCC(=O)NNC(=S)NC(=O)C2CC2)c(Br)c1	97.6
COc1ccc(N=Cc2nc(-c3ccccc3)oc2OC(=O)c2ccccc2)cc1	101
CCc1noc(C)c1C(=O)Nc1nc(-c2ccc(Cl)cc2Cl)cs1	95.6
O=C1c2ccsc2SCCN1Cc1ccc(Cl)cc1Cl	94.2
COc1ccc(N=Cc2cc(Cc3ccccc3Cl)cc([N+](=O)[O-])c2O)cc1OC	93
COc1ccc(S(=O)(=O)N2CCC(O)(c3ccc(Cl)cc3)CC2)cc1	99.6
O=C(N/N=C/c1ccccn1)c1sc2ccccc2c1Cl	94
CCC(=O)c1ccc(N2CCN(C(=O)c3ccc(Br)cc3)CC2)c(F)c1	97.6
O=C(NCc1ccc2c(c1)OCO2)c1nc(S(=O)(=O)Cc2ccccc2F)ncc1Cl	99.3
COC(=O)Cn1cc(/C=C/c2cc[n+](C)cc2)c2ccccc21	99.3
O=C(Nc1nnc(-c2ccc(F)cc2)o1)c1cccc([N+](=O)[O-])c1	97
Cc1ccc(Sc2ncnc3onc(C)c23)cc1	95.7
COc1ccc(C(=O)Nc2cccc(C)c2)cc1	99.3
Cc1cccn2c(=O)c(/C=C(\C#N)C(N)=O)c(N3CCN(Cc4ccc5c(c4)OCO5)CC3)nc12	101
CS/C(N)=N/N=C/c1ccc2c(c1)OCO2	98.9
O=C(NNC(=S)NC(=O)c1cn(-c2ccccc2)nc1-c1ccccc1)c1ccncc1	101
CC(=O)[C@@]1(O)CC[C@H]2[C@@H]3CCC4=CC(=O)CC[C@]4(C)[C@H]3CC[C@@]21C	99.5
Cn1cnnc1SCC(=O)Nc1nc(-c2ccc(F)cc2)cs1	99.1
Cc1ccsc1/C=N/Nc1ncc(Cl)cc1Cl	94.2
Oc1ccc2ccccc2c1N=Nc1nccs1	98.1
COc1ccc(-c2csc(N(CC(C)C)C(=O)c3ccco3)n2)cc1	100
COc1cc(/C=C/c2ccc3c(Br)cc(Br)c(O)c3n2)ccc1O	107
O=C(CCc1ccc(S(=O)(=O)N2CCOCC2)cc1)Oc1ccccc1	101
Cc1cc(C)c(S(=O)(=O)NCC23C=CC(O2)C2C(=O)N(c4ccccc4)C(=O)C23)c(C)c1 (centres undefined)	103
COc1ccc(-c2nn(-c3ccccc3)cc2C(=O)NC(=S)NNC(=O)c2ccncc2)cc1	101
CC1=CCC(C(=O)O)C(C(=O)Nc2ccc(-c3nc4ccc(C)cc4s3)cc2)C1 (centres undefined)	100
CCOc1ccc(N2C(=O)CC(Sc3nccc(C)n3)C2=O)cc1 (centres undefined)	99.3
O=[N+]([O-])/C=C/c1cn(Cc2ccccc2)c2ccccc12	98.1
Cn1c(C(=O)O)cc2c(=O)n3ccccc3nc21	99.3
O=c1/c(=C/c2cccc3ccccc23)sc2ncnn12	113
O=C(O)c1ccn2c(C(=O)c3ccc(Cl)cc3)c(-c3ccccc3)cc2c1	92.3
O=C(CCC(F)(F)F)N1CCC(CO)(CCc2ccccc2)CC1	99.8
CCOC(=O)c1ccc(NC(=O)CCc2nc(-c3cccc(C)c3)no2)cc1	98.5
CCCS(=O)(=O)N1CCC(C(=O)c2cccc(C(F)(F)F)c2)CC1	97
CCOc1cc(C(=O)N2CCN(c3ccc(C(C)=O)cc3)CC2)cc(OCC)c1OCC	91.2
CCCc1[nH]nc2c1C(c1ccc(OC)c(Cn3nnc4ccccc43)c1)C(C#N)=C(N)O2 (centres undefined)	98.6
CN1CCN(C(c2ccc(C(F)(F)F)cc2)c2ccc3cccnc3c2O)CC1 (centres undefined)	87.3
COc1ccc(NC(=O)/C(C#N)=C/c2ncc([N+](=O)[O-])n2C)c(OC)c1	95.1
O=[N+]([O-])c1ccc(Sc2ccc(Cl)c(Cl)c2)nc1	96.1
CCCCn1c(=O)c(C(=O)OCC)c(O)c2ccccc21	101
O=C(COC(=O)c1n[nH]c2ccccc12)c1cccc(Br)c1	95.6
C/C(=N\NC(=O)c1cccc(Cl)c1)c1cccc(NC(=O)C(C)C)c1	98.1
COc1ccc(C2CC(c3ccccc3)=NN2S(=O)(=O)c2ccccc2)cc1 (centres undefined)	102
CCOc1cc(N2CCOCC2)c(OCC)cc1NC(=O)C(NC(=O)c1ccco1)C(C)C (centres undefined)	101
